measured_on: IL-12 (human, p35/p40 heterodimer) (Homo sapiens, UniProt P29459;P29460 SEQ:57-253,SEQ:23-328)
Sequence (P29459 23-219, chain 1 of 2): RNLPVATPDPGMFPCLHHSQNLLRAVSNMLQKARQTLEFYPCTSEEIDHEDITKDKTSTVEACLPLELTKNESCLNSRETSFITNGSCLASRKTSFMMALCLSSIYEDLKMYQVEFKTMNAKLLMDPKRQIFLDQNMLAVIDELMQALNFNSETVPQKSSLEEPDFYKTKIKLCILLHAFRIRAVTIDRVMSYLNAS
Sequence (P29460 23-328, chain 2 of 2): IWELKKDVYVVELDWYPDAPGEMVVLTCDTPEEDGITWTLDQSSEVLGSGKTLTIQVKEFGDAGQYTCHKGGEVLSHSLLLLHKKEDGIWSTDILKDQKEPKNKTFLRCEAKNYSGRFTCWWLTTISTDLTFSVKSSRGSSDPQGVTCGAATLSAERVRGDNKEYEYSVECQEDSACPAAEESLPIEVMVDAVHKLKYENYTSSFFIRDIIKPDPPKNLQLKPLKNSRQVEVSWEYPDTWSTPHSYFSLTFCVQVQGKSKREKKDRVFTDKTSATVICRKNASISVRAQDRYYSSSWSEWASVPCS
protocol_description: filter; tRNA
Classify: label 1 when Kd is strictly less than 900 nM; label 0 when Kd is not.

binder	class
AMX86-B10 (ssRNA, 2'-F C,U) RNA: GGGAAAAGCGAAUCAUACACAAGAGAACGAGUAUAUUUGCGCUGGCGGAGAAGUCUCUCGAAGGGAGCUCCGCCAGAGACCAACCGAGAA	label 0
AMX86-C9 (ssRNA, 2'-F C,U) RNA: GGGAAAAGCGAAUCAUACACAAGACUCAUGGAUAUGGCCUAGCAGCCGUGGAAGCGGUCAUUCUGCUCCGCCAGAGACCAACCGAGAA	label 1
AMX86-A10 (ssRNA, 2'-F C,U) RNA: GGGAAAAGCGAAUCAUACACAAGAGUAAUGUGGGUCCCGAUGAUUCGCUGUGCGGCGUUUGUAGCUCCGCCAGAGACCAACCGAGAA	label 1
AMX86-F11 (ssRNA, 2'-F C,U) RNA: GGGAAAAGCGAAUCAUACACAAGACCAUCGGACGAGGCGGGUCACCUUUUACGCUUUCGAGCUGGCUCCGCCAGAGACCAACCGAGAA	label 1

Let us examine a further case.
is_below(Kd, 900 nM) for AMX86-B7 (ssRNA, 2'-F C,U) RNA: GGGAAAAGCGAAUCAUACACAAGAAUGAAUUCCGUCCACGGGCGCCCGAUGAUGUCAGUUUUCGGCUCCGCCAGAGACCAACCGAGAA ? label 0
